Exercise: for every item that follows, state its recorded Average EC50, pSTAT5 assay in pan T cells, MMP2 cleaved molecule.
SYSTEM_NAME: T1, IL-2 receptor βγ complex on pan T cells (human, UniProt P14784 27-551; P31785 23-369)
T1 sequence (looked up) 1: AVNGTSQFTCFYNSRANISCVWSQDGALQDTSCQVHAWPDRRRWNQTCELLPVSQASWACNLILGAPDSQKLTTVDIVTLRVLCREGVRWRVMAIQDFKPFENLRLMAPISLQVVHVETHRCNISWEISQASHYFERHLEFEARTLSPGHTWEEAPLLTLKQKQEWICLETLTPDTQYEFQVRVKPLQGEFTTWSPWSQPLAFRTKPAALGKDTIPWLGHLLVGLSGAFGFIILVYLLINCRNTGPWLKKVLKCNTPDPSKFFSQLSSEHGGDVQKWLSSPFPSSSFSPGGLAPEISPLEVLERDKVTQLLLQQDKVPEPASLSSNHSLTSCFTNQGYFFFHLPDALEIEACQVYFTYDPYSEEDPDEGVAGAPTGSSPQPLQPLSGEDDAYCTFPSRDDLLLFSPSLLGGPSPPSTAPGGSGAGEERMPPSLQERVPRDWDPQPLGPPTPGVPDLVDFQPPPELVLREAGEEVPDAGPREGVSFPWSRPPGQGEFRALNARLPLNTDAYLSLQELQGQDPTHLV
T1 sequence (looked up) 2: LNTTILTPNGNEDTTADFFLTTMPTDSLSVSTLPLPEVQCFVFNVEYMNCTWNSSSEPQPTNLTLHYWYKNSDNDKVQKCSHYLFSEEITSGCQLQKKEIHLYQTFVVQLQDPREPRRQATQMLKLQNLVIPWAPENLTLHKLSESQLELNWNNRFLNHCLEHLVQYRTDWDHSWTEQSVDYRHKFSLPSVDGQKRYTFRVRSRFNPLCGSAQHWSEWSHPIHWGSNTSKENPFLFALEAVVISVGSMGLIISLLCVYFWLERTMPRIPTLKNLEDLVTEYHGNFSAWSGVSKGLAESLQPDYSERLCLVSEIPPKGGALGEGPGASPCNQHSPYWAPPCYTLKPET
EXPERIMENT_SUMMARY: cell-based or functional assay
Bridges are numbered along the chain shown (N, C = ends). [ ]: non-standard residue; d: D form. Ygp = O-(8x polyethylene glycol-amino)-tyrosine; Yn3 = O-(9x polyethylene glycol-azido)-tyrosine; hSer = N[C@@H](CCO)C(=O)O; Nle = CCCC[C@H](N)C(=O)O
Just the number in nM, nothing appended.

## Task What value of Average EC50, pSTAT5 assay in pan T cells, MMP2 cleaved molecule has been reported for the following binder? CMP-165, MMP2 cleaved (ligand, disulfide 58-105 (inferred); not fully specified (residue 23, N-terminus); also: MMP2 cleaved, ring opened, cut site not given here, peptide remnants on N-terminus (via glutaryl) and on Lys23 side chain) APTSSSTKKTQLQLEHLLLDLQKILNGINNYKNPKLTR[Nle]L[hSer][Yn3]KF[Ygp][Nle]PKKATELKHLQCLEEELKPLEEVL[hSer]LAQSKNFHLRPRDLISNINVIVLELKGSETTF[hSer]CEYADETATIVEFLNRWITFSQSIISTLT
## Result 1.42

## Task What value of Average EC50, pSTAT5 assay in pan T cells, MMP2 cleaved molecule has been reported for the following binder? CMP-302, MMP2 cleaved (ligand, ends and bridges not checked; also: cleaved by MMP2 within the cleavable peptide, macrocycle opened, cut site not given here) GPLGLAGAPTSSSTKKTQLQLEHLLLDLQEILNGINNYKNPKLTR[Nle]L[hSer][Yn3]KF[Ygp][Nle]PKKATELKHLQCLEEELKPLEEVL[hSer]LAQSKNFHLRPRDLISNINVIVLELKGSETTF[hSer]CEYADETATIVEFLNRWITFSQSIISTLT
## Result 1.43
